- System: MV-4-11 (human, Acute Myeloid Leukemia cell line) cells
- test_method_notes: Cell growth inhibition assay, GI50 of MV-4-11
- Type: cell-based
- setup_conditions: Homo sapiens, MV4-11, 72 h, MV-4-11 cells
measured_parameter: GI50 (nM)

# annotated cases, reported GI50 shown
molecule: C=CCN1CC(=O)N2[C@@H](Cc3ccc(O)cc3)C(=O)N(Cc3cccc4c(-c5ccc(NC(=O)NC6CCN(C(C)=O)CC6)cc5)cn(C)c34)C[C@@H]2N1C(=O)NCc1ccccc1 [Compound D-84]
GI50, nM: 1.7

molecule: C=CCN1CC(=O)N2[C@@H](Cc3ccc(O)cc3)C(=O)N(Cc3cccc4c(C(=O)Nc5ccc(OC)cc5)cn(C)c34)C[C@@H]2N1C(=O)NCc1ccccc1 [Compound G-3]
GI50, nM: 5.7

molecule: C=CCN1CC(=O)N2[C@@H](Cc3ccc(O)cc3)C(=O)N(Cc3cccc4c(C(=O)N(C)CCCN5CCN(C)CC5)cn(C)c34)C[C@@H]2N1C(=O)NCc1ccccc1 [Compound F-31]
GI50, nM: 1.9

a: C=CCN1CC(=O)N2[C@@H](Cc3ccc(O)cc3)C(=O)N(Cc3cccc4c(-c5ccc(C(=O)NC6CCC(NC(=O)OC(C)(C)C)CC6)cc5)cn(C)c34)C[C@@H]2N1C(=O)NCc1ccccc1 (stereo partly drawn) [Compound D-31]
b: C=CCN1CC(=O)N2C(Cc3ccc(O)cc3)C(=O)N(Cc3cccc4c(C(=O)Nc5ccc(NCCCN6CCCC6)nc5)cn(C)c34)CC2N1C(=O)NCc1ccccc1 (stereo not shown) [Compound G-32]
c: C=CCN1CC(=O)N2C(Cc3ccc(O)cc3)C(=O)N(Cc3cccc4c(C(=O)Nc5ccc(NCCN6CCN(C)CC6)nc5)cn(C)c34)CC2N1C(=O)NCc1ccccc1 (stereo not shown) [Compound G-30]
query: Reorder: GI50, max to min. Return value: ordered labels per request.
result: b, c, a

1: C=CCN1CC(=O)N2[C@@H](Cc3ccc(O)cc3)C(=O)N(Cc3cccc4c(-c5ccc(C(=O)Nc6ccc(OC)cc6)cc5)cn(C)c34)C[C@@H]2N1C(=O)NCc1ccccc1 [Compound D-22]
2: C=CCN1CC(=O)N2[C@@H](Cc3ccc(O)cc3)C(=O)N(Cc3cccc4c(C(=O)NCCCCOC)cn(C)c34)C[C@@H]2N1C(=O)NCc1ccccc1 [Compound F-10]
query: Endpoint returns the identifier whose GI50 is numerically larger, either 1 or 2 . Return value: the label identifying the chosen record.
result: 2
(2: 15.1 nM, 1: 4.2 nM)

I: C=CCN1CC(=O)N2[C@@H](Cc3ccc(O)cc3)C(=O)N(Cc3cccc4c(-c5ccc(C(=O)NNCC(F)(F)F)cc5)cn(C)c34)C[C@@H]2N1C(=O)NCc1ccccc1 [Compound D-37]
II: C=CCN1CC(=O)N2[C@@H](Cc3ccc(O)cc3)C(=O)N(Cc3cccc4c(C(=O)N5CCN6CCCC6C5)cn(C)c34)C[C@@H]2N1C(=O)NCc1ccccc1 (stereo partly shown) [Compound E-43]
query: Given I and given II , which shows the smaller recorded GI50? Write down the label of the entry you select.
result: I
